Origin of the recorded values: patent US9073893B2

- ASSAY SYSTEM: PARP-2 (Homo sapiens (Human), UniProt Q9UGN5)
- Sequence (Q9UGN5 whole entry): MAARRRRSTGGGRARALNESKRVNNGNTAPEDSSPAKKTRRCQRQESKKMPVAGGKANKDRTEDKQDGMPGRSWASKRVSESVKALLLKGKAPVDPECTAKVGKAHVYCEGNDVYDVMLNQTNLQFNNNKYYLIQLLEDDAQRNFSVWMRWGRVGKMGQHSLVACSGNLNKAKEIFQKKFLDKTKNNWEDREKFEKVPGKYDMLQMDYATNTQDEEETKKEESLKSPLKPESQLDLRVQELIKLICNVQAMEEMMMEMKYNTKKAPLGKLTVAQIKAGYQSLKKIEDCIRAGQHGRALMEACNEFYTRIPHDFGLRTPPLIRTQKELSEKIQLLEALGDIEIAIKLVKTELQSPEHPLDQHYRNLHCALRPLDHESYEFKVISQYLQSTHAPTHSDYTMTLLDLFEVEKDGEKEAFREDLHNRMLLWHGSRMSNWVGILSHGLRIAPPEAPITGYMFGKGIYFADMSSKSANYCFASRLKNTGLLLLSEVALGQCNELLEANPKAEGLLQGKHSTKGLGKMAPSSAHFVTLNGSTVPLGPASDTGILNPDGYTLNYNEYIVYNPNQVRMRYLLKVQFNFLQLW
- EXPERIMENTAL SETUP: read-out: PARP-2 (DC50 μM); probe P1
DC50 values for the molecules below.

[[record]]
molecule = "Cn1c2cccc(C(N)=O)c2c(=O)n1C1CCN(C2CCCC2)CC1"
assay_system = "PARP-2 (Homo sapiens (Human), UniProt Q9UGN5)"
observed_measurement = "< 0.25 µM"

[[record]]
molecule = "Cn1c2cc(F)cc(C(N)=O)c2c(=O)n1C1CCNCC1"
assay_system = "PARP-2 (Homo sapiens (Human), UniProt Q9UGN5)"
observed_measurement = "< 0.25 µM"

[[record]]
molecule = "CN1CCC(n2[nH]c3cccc(C(N)=O)c3c2=O)CC1"
assay_system = "PARP-2 (Homo sapiens (Human), UniProt Q9UGN5)"
observed_measurement = "< 0.25 µM"


For the molecule NC(=O)c1cccc2[nH]n(C3CCN(CC4CC=CCC4)CC3)c(=O)c12 (centres unmarked) , what DC50 is on record?
> 10 µM

For the molecule NC(=O)c1cccc2[nH]n(C3CCN(Cc4ccco4)CC3)c(=O)c12 , what DC50 is on record?
> 10 µM

For the molecule Cn1c2cccc(C(N)=O)c2c(=O)n1C1CCNCC1 , what DC50 is on record?
< 0.25 µM

For the molecule NC(=O)c1cccc2[nH]n(C3CCN(C4CCCCC4)CC3)c(=O)c12 , what DC50 is on record?
> 10 µM

For the molecule NC(=O)c1cccc2[nH]n(C3CCN(CC4CCCCC4)CC3)c(=O)c12 , what DC50 is on record?
> 10 µM

---

DC50 values for the molecules below.
- ASSAY SYSTEM: UniProtKB Q9UGN5
- EXPERIMENTAL SETUP: read-out: PARP-2 (DC50 μM); probe P1

Here's what some known entries look like.
[[record]]
molecule = "CC(C)N1CCC(n2c(=O)c3c(C(N)=O)cccc3n2C)CC1 [Compound 14]"
measurement_kind = "DC50"
observed_measurement = "< 0.25 µM"

[[record]]
molecule = "NC(=O)c1cccc2[nH]n(C3CCN(C4CCC(F)(F)CC4)CC3)c(=O)c12 [Compound 4]"
measurement_kind = "DC50"
observed_measurement = "> 10 µM"

[[record]]
molecule = "Cn1c2cccc(C(N)=O)c2c(=O)n1C1CCN(CC2CCCCC2)CC1 [Compound 33]"
measurement_kind = "DC50"
observed_measurement = "> 10 µM"

[[record]]
molecule = "NC(=O)c1cccc2[nH]n(C3CCN(Cc4cccs4)CC3)c(=O)c12 [Compound 62]"
measurement_kind = "DC50"
observed_measurement = "> 10 µM"


For the molecule Cn1c2cccc(C(N)=O)c2c(=O)n1C1CCN(C2CCC2)CC1 [Compound 18] , what DC50 is on record?
< 0.25 µM

---

- ASSAY SYSTEM: PARP-1 (Homo sapiens (Human))
- Sequence (P09874 whole entry): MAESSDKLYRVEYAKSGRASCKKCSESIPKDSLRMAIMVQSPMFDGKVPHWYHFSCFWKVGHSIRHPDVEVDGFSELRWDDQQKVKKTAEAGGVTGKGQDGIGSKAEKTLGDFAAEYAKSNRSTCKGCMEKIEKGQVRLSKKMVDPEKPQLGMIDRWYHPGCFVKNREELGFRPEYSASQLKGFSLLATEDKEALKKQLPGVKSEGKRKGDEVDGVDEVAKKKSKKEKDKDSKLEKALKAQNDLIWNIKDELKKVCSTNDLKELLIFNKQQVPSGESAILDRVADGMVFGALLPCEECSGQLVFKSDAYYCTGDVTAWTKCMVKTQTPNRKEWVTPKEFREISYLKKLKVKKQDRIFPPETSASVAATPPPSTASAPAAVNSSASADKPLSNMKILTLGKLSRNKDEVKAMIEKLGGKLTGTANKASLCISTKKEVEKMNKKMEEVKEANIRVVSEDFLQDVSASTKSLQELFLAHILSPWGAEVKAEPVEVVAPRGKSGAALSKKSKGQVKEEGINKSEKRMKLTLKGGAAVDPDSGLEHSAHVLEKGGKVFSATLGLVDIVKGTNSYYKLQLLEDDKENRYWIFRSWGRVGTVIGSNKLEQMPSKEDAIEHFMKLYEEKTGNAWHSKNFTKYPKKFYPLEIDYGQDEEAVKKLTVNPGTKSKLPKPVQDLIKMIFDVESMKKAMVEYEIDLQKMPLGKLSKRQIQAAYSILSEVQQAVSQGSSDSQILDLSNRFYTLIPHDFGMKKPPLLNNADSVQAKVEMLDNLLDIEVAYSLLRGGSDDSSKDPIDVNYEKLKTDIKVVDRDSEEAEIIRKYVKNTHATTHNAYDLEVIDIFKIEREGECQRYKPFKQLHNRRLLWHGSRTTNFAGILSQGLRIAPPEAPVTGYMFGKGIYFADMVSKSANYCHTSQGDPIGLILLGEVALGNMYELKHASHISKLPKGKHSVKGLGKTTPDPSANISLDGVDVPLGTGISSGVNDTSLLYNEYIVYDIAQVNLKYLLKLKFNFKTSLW
- EXPERIMENTAL SETUP: read-out: PARP-1 (Kd μM); probe P3; <0.01 = assay sensitivity limit
MEASUREMENT KIND: Kd

Here's what some known entries look like.
[[record]]
compound = "Cn1c2cc(F)cc(C(N)=O)c2c(=O)n1C1CCNCC1 [Compound 21]"
assay_system = "PARP-1 (Homo sapiens (Human))"
observed_measurement = "< 0.01 µM"

[[record]]
compound = "Cn1c2cccc(C(N)=O)c2c(=O)n1C1CCN(C2CCC(F)(F)CC2)CC1 [Compound 6]"
assay_system = "PARP-1 (Homo sapiens (Human))"
observed_measurement = "< 0.01 µM"


From here, focus on the item given below.
For the compound NC(=O)c1cc(F)cc2[nH]n(C3CCNCC3)c(=O)c12 [Compound 20] , what Kd is on record?
< 0.01 µM

---

- ASSAY SYSTEM: PARP-3 (Homo sapiens (Human))
- Sequence (Q9Y6F1 whole entry): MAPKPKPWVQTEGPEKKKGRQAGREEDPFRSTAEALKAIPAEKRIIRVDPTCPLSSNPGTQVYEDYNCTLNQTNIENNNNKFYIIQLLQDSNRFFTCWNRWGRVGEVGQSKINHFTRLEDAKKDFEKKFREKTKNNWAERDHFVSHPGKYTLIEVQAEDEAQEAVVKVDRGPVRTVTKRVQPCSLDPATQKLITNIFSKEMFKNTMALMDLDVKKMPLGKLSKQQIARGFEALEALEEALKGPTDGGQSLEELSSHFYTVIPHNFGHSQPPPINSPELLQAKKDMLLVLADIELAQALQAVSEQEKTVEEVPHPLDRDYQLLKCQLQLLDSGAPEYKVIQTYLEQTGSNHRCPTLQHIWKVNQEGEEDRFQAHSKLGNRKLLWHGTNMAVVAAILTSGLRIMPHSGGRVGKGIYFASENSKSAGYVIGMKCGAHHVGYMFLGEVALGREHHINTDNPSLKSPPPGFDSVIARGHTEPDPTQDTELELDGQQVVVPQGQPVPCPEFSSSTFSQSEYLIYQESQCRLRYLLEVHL
- EXPERIMENTAL SETUP: read-out: PARP-3 (DC50 μM); probe P1
MEASUREMENT KIND: DC50 (µM)

(I) Cn1c2cccc(C(N)=O)c2c(=O)n1C1CCN(Cc2ccco2)CC1
(II) Cn1c2cccc(C(N)=O)c2c(=O)n1C1CCN(CC2CC=CCC2)CC1 (stereo not shown)
Which value of DC50 is numerically greater: that of I or that of II ? Field: selected label. Fill in the label of the entry you choose.
I

---

DC50 values for the molecules below.
- ASSAY SYSTEM: UniProt Q9Y6F1
- EXPERIMENTAL SETUP: read-out: PARP-3 (DC50 μM); probe P1

Here's what some known entries look like.
[[record]]
molecule = "NC(=O)c1cccc2[nH]n(C3CCN(CC4CC=CCC4)CC3)c(=O)c12 (centres unmarked) [Compound 64]"
assay_system = "UniProt Q9Y6F1"
measurement_kind = "DC50"
observed_measurement = "> 10 µM"

[[record]]
molecule = "NC(=O)c1cccc2[nH]n(C3CCN(C4CCCC4)CC3)c(=O)c12 [Compound 2]"
assay_system = "UniProt Q9Y6F1"
measurement_kind = "DC50"
observed_measurement = "> 10 µM"

[[record]]
molecule = "CC(C)N1CCC(n2c(=O)c3c(C(N)=O)cccc3n2C)CC1 [Compound 14]"
assay_system = "UniProt Q9Y6F1"
measurement_kind = "DC50"
observed_measurement = "> 10 µM"

[[record]]
molecule = "Cn1c2cc(F)cc(C(N)=O)c2c(=O)n1C1CCNCC1 [Compound 21]"
assay_system = "UniProt Q9Y6F1"
measurement_kind = "DC50"
observed_measurement = "0.22 µM"

[[record]]
molecule = "Cn1c2cccc(C(N)=O)c2c(=O)n1C1CCN(C2CCC2)CC1 [Compound 18]"
assay_system = "UniProt Q9Y6F1"
measurement_kind = "DC50"
observed_measurement = "2.88 µM"

[[record]]
molecule = "Cn1c2cccc(C(N)=O)c2c(=O)n1C1CCN(Cc2cccs2)CC1 [Compound 63]"
assay_system = "UniProt Q9Y6F1"
measurement_kind = "DC50"
observed_measurement = "1.42 µM"

[[record]]
molecule = "NC(=O)c1cc(F)cc2[nH]n(C3CCN(C4CCCCC4)CC3)c(=O)c12 [Compound 23]"
assay_system = "UniProt Q9Y6F1"
measurement_kind = "DC50"
observed_measurement = "> 10 µM"

[[record]]
molecule = "Cn1c2cccc(C(N)=O)c2c(=O)n1C1CCN(CC2CCCCC2)CC1 [Compound 33]"
assay_system = "UniProt Q9Y6F1"
measurement_kind = "DC50"
observed_measurement = "2.9 µM"


For the molecule NC(=O)c1cccc2[nH]n(C3CCN(C4CCCCC4)CC3)c(=O)c12 [Compound 3] , what DC50 is on record?
> 10 µM

For the molecule NC(=O)c1cccc2[nH]n(C3CCN(CC4CCCCC4)CC3)c(=O)c12 [Compound 31] , what DC50 is on record?
> 10 µM

For the molecule NC(=O)c1cccc2[nH]n(C3CCN(C4CCC(F)(F)CC4)CC3)c(=O)c12 [Compound 4] , what DC50 is on record?
> 10 µM
